# target-of-assay: SARS-CoV-2 S protein RBD RBD (Severe acute respiratory syndrome coronavirus 2), P0DTC2
# stated-conditions: modification not given
assay-endpoint: pKd
pKd (log units): -log10 of the concentration in mol/L.

[in] Which pKd reading was recorded for the binder DKWSAFLKEQSTIAQMYPLQECI [h2 (67-89)] ?
[out] 4.40
